FYI, the data here is from patent US20180177749A1.

# Measurement Target: UniProtKB P10632
# Assay Comment: Recombinant microsomal CYP-mediated EET biosynthesis (CYP2C8 Supersomes)
# Format: biochemical
# Design: host or cells: insect cells (microsomes)
# Setup Conditions: read-out: IC50, CYP2C8 synthesis of (±)-8,9-EET
Experimental Endpoint: IC50

[[record]]
molecule = "CCCCCCNC(=N)NC(=N)NCc1ccccc1 [HBB, N1-hexyl-N5-benzyl-biguanide]"
measurement_target = "UniProtKB P10632"
measured_result = "65 µM"


---

# Test system: MCF-7
# Assay Comment: MTT cell proliferation assay, MCF-7
# Assay type: cell-based
# Setup Conditions: Homo sapiens, MCF7; read-out: IC50, MCF-7 breast cancer cell line
pIC50: −log10 of the molar value.
Experimental Endpoint: pIC50

[[record]]
compound = "CCCCCCNC(=N)NC(=N)NCc1ccncc1 [HPB]"
measured_result = 4.40


---

# Measurement Target: CYP3A4 (Homo sapiens, UniProt P08684)
# Construct: host or cells: insect cells (microsomes)
# Sequence (P08684 whole entry): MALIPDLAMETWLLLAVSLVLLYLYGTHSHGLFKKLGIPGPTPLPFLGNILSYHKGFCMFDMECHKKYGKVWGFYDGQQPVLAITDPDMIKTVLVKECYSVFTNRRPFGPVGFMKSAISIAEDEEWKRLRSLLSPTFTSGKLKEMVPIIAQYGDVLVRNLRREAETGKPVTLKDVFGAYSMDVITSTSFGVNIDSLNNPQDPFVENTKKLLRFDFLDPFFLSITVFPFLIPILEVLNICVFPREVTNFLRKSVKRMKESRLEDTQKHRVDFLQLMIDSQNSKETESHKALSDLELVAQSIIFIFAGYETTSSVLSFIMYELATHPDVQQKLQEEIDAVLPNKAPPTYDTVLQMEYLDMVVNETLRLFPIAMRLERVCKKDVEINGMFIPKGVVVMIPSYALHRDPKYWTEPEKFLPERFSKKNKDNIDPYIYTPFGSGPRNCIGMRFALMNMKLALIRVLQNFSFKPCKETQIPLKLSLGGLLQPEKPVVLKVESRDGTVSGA
# Assay Comment: Recombinant microsomal CYP-mediated EET biosynthesis (CYP3A4 Supersomes)
# Type: biochemical
# Setup Conditions: microsomal CYP3A4; read-out: IC50, CYP3A4 synthesis of (±)-8,9-EET
pIC50: −log10 of the molar value.
Experimental Endpoint: pIC50

[[record]]
compound = "CCCCCCNC(=N)NC(=N)NCc1ccccc1 [HBB, N1-hexyl-N5-benzyl-biguanide]"
experimental_endpoint = "pIC50"
measured_result = 5.02


---

# Measurement Target: CYP2C8 (Homo sapiens, UniProt P10632)
# Sequence (P10632 1-490): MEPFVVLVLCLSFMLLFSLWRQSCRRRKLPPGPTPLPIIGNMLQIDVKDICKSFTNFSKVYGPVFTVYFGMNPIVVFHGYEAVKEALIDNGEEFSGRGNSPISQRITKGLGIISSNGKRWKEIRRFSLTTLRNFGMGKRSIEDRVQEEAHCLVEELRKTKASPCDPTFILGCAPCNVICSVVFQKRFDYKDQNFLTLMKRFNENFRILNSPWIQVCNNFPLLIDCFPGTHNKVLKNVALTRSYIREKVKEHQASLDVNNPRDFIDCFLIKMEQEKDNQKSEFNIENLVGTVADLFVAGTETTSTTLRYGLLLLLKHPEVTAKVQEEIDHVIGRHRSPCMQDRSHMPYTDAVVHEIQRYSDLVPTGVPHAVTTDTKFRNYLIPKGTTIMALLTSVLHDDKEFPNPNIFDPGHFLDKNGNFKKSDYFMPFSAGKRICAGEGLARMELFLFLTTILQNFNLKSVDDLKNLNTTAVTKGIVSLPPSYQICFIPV
# Assay Comment: Recombinant microsomal CYP-mediated EET biosynthesis (CYP2C8 Supersomes)
# Assay type: biochemical
# Set-up: host or cells: insect cells (microsomes)
# Setup Conditions: read-out: IC50, CYP2C8 synthesis of (±)-11,12-EET
Experimental Endpoint: IC50 (µM)

[[record]]
compound = "CCCCCCNC(=N)NC(=N)NCc1ccccc1 [HBB, N1-hexyl-N5-benzyl-biguanide]"
unit_name = "µM"
measured_result = 50


---

# Measurement Target: CYP3A4 (Homo sapiens, UniProt P08684)
# Construct: host or cells: insect cells (microsomes)
# Assay Comment: Recombinant microsomal CYP-mediated EET biosynthesis (CYP3A4 Supersomes)
# Format: biochemical
# Setup Conditions: microsomal CYP3A4; read-out: IC50, CYP3A4 synthesis of (±)-11,12-EET
pIC50: −log10 of the molar value.
Experimental Endpoint: pIC50

[[record]]
compound = "CCCCCCNC(=N)NC(=N)NCc1ccccc1 [HBB, N1-hexyl-N5-benzyl-biguanide]"
measured_result = 5.10

